# conditionsUsed: Ebola virus entry assay, green fluorescence channel; note: 0% is about no effect
Measured potencies and affinities stand elsewhere.
measuredMetric: efficacy (%)
Express your answer in %, writing the number without its unit.

In [3]: df
Out[3]:
                                   molecule  unitdescriptor  valueobserved
0         OC(C#CCN1CCCC1)(c1ccccc1)c1ccccc1               %           80.1
1                       CC(C)(O)C(Cl)(Cl)Cl               %          -12.3
2            CCCOc1ccc2nc(NC(=O)OC)[nH]c2c1               %          -28.5
3  COC(=O)Nc1nc2ccc(S(=O)c3ccccc3)cc2[nH]1 (configuration not stated)               %           35.9
4  O=C(CCN1CCN2CCCC2C1)N1c2ccccc2Sc2ccc(Cl)cc21 (configuration not stated)               %            163

API: the following record is the query input.
Provide efficacy value for the following molecule: O=C(Nc1ccccc1)OCC(CN1CCCCC1)OC(=O)Nc1ccccc1 (configuration not stated) 31.7
